Hey, just so you know, these numbers are from the supplement of paper PMC8728848.

Target: Gal(b1-3)GlcNAc
Test: glycan array binding signal (z-score within array); higher = stronger binding
Settings: glycan notation: IUPAC condensed, linker removed
The full list was thinned out, with the strongest signals kept by preference.
Measured Parameter: glycan array binding signal (z-score)
Form rule: numeric answer, no unit written next to it.

The value of glycan array binding signal (z-score) measured for the binder Clec49 (Caenorhabditis elegans) (protein) MTRLTLLLFGLLGAATAQTCNTGGIYNEQFNRCYQYFTAPAQFSFAEQQCNLLGGHLASVQNGQENALLQSNAANSFKRSNYSDYWIGATDLETSGTWKWTDPSVTFDYSNWQLGEPQSGSDCAIQDKGDGTWSAIGCTSYRPYVCVTPVIMTATCPPITTPIPTTCPTPAPCPIKQCVPSCDQGWTYFSPTDFCYRVYHGEKFNDAEASCVLLGGHLASIHSLTENTFVNNIASCGIKEGKYEHLAWIGMRKVGQDWVWTDGTPSDYFNWAPKQPDNPKKELCVQTAPDLSHDKWYENWNNLECNEVMRAYICKKASIHN turned out to be -0.244
